System: P. falciparum 3D7
assay-explanation: Antiplasmodial SYBR Green assay, CQ-sensitive strain
Format: cell-based, Plasmodium falciparum
condition-details: Plasmodium falciparum, 3D7, read-out: IC50 (nM ± SD) P.falciparum 3D7
property-measured: IC50 (nM)
Give a bare numeral; the unit nM is implied.

INSERT INTO assay_data (molecule, unit_text, endpoint_result) VALUES
  ('CCN(CC)CC#CCNc1ccnc2cc(Cl)ccc12', 'nM', 46),
  ('C#CCNc1ccnc2cc(Cl)ccc12', 'nM', 377);

In the following, a different molecule is considered.
Q: Look up IC50 for this molecule: CCN(CC)CCCC(C)Nc1ccnc2cc(Cl)ccc12 (stereo not drawn) [CQ, chloroquine, reference compound]
Result: 36
